target: Human Factor D (Homo sapiens (Human)); assay: Human Factor D Assay; type: biochemical; settings: Human Factor D 80 nM, substrate Z-L-Lys-SBzl; read-out: IC50
Sequence (P00746 26-253): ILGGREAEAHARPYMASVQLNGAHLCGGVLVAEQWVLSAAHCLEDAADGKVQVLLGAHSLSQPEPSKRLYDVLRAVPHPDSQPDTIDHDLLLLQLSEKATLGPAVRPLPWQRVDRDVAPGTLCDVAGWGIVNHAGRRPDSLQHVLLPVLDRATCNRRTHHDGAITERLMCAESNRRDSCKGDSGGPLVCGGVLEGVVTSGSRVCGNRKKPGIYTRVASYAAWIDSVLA
pIC50: −log10 of the molar value.

{"molecule": "NC(=O)c1nn(CC(=O)N2[C@@H]3C[C@@H]3C[C@H]2C(=O)Nc2cccc(-c3ccccc3Cl)c2F)c2ccc(-c3ncccn3)cc12 [Compound 7]", "system-under-test": "Human Factor D (Homo sapiens (Human))", "pIC50": "> 6.00"}
{"molecule": "CC(=O)c1nn(CC(=O)N2C[C@H](F)C[C@H]2C(=O)Nc2cccc(-c3ccccc3Cl)c2F)c2ccc(-c3cnc(C)nc3)cc12 [Compound 163]", "system-under-test": "Human Factor D (Homo sapiens (Human))", "pIC50": "> 6.00"}
{"molecule": "NC(=O)c1nn(CC(=O)N2C[C@H](F)C[C@H]2C(=O)Nc2nnc(-c3ccc(Cl)c(Cl)c3)s2)c2ccc(-c3ccnnc3)cc12 [Compound 69]", "system-under-test": "Human Factor D (Homo sapiens (Human))", "pIC50": "< 5.00"}
{"molecule": "Cc1ncc(-c2ccc3c(c2)c(C(N)=O)nn3CC(=O)N2C[C@H](F)C[C@H]2C(=O)Nc2cccc(Br)n2)cn1 [Compound 101]", "system-under-test": "Human Factor D (Homo sapiens (Human))", "pIC50": "> 6.00"}
{"molecule": "CC(=O)c1cn(CC(=O)N2C[C@H](F)C[C@H]2C(=O)Nc2cccc(Br)n2)c2ccc(-c3cccc(Cl)c3)cc12 [Compound 119]", "system-under-test": "Human Factor D (Homo sapiens (Human))", "pIC50": "> 6.00"}
{"molecule": "CC(=O)c1cn(CC(=O)N2C[C@H](F)C[C@H]2C(=O)Nc2cccc(-c3ncccc3Cl)c2F)c2ccc(-c3cnc(C)nc3)cc12 [Compound 164]", "system-under-test": "Human Factor D (Homo sapiens (Human))", "pIC50": "> 6.00"}

* * *

biological target: Human Factor D (Homo sapiens (Human)); test: Human Factor D Assay; type: biochemical; details: Human Factor D assay of Example 8; Table 2; read-out: IC50
readout-kind: IC50

{"compound": "CC(=O)c1nn(CC(=O)N2C[C@H](F)C[C@H]2C(=O)Nc2cccc(C(F)(F)F)n2)c2ccc(-c3cnc4cc(C)nn4c3)cc12 [Compound 264]", "system-under-test": "Human Factor D (Homo sapiens (Human))", "value": "< 1000 nM"}
{"compound": "CC(=O)c1nn(CC(=O)N2C[C@H](F)C[C@H]2C(=O)NCc2cccc(Cl)c2F)c2ccc(-c3cnc4ccnn4c3)cc12 [Compound 236]", "system-under-test": "Human Factor D (Homo sapiens (Human))", "value": "< 1000 nM"}
{"compound": "CC(=O)c1cn(CC(=O)N2C[C@H](F)C[C@H]2C(=O)Nc2cncc(Br)n2)c2ccc(-c3cnc4ccnn4c3)cc12 [Compound 323]", "system-under-test": "Human Factor D (Homo sapiens (Human))", "value": "< 1000 nM"}
{"compound": "CC(=O)c1nn(CC(=O)N2C[C@H](F)C[C@H]2C(=O)Nc2cc(C)cc(Br)n2)c2ccc(-c3cnc4cc(C)nn4c3)cc12 [Compound 332]", "system-under-test": "Human Factor D (Homo sapiens (Human))", "value": "< 1000 nM"}
{"compound": "CC(=O)c1cn(CC(=O)N2N=CCC2C(=O)Nc2cccc(-c3ccccc3Cl)c2F)c2ccc(-c3cnc(C)nc3)cc12 (stereo not shown) [Compound 221]", "system-under-test": "Human Factor D (Homo sapiens (Human))", "value": "< 1000 nM"}
{"compound": "CC(=O)n1cc(NC(=O)N2C[C@H](F)C[C@H]2C(=O)Nc2cccc(Br)n2)c2ccc(-c3cnc(C)nc3)cc21 [Compound 292]", "system-under-test": "Human Factor D (Homo sapiens (Human))", "value": "< 1000 nM"}
{"compound": "CC(=O)c1nn(CC(=O)N2C[C@H](F)C[C@H]2C(=O)Nc2cncc(Br)n2)c2ccc(-c3cnc4cc(C)nn4c3)cc12 [Compound 306]", "system-under-test": "Human Factor D (Homo sapiens (Human))", "value": "< 1000 nM"}
{"compound": "CC(=O)c1nn(CC(=O)N2C[C@H](F)C[C@H]2C(=O)NC2CCN(C(=O)c3cc(Cl)c[nH]3)CC2)c2ccc(-c3cnc(C)nc3)cc12 [Compound 232]", "system-under-test": "Human Factor D (Homo sapiens (Human))", "value": "< 1000 nM"}
{"compound": "CC(=O)c1nn(CC(=O)N2C[C@H](F)C[C@H]2C(=O)Nc2cccc(-c3cccc(S(C)(=O)=O)c3)c2F)c2ccc(-c3cnc(C)nc3)cc12 [Compound 295]", "system-under-test": "Human Factor D (Homo sapiens (Human))", "value": "< 1000 nM"}
{"compound": "CC(=O)c1nn(CC(=O)N2C[C@H](F)C[C@H]2C(=O)Nc2cncc(Br)n2)c2ccc(-c3cnc(C)nc3)cc12 [Compound 317]", "system-under-test": "Human Factor D (Homo sapiens (Human))", "value": "< 1000 nM"}
{"compound": "CC(=O)c1nn(CC(=O)N2C[C@H](F)C[C@H]2C(=O)Nc2cncc(Br)n2)c2ccc(-c3cnc4ccnn4c3)cc12 [Compound 322]", "system-under-test": "Human Factor D (Homo sapiens (Human))", "value": "< 1000 nM"}
{"compound": "CC(=O)c1cn(CC(=O)N2C[C@H](F)C[C@H]2C(=O)Nc2cccc(-c3ccccc3Cl)c2F)c2ccc(-c3cnc(S(C)(=O)=O)nc3)cc12 [Compound 210]", "system-under-test": "Human Factor D (Homo sapiens (Human))", "value": "< 1000 nM"}
{"compound": "CC(=O)c1nn(CC(=O)N2C[C@H](F)C[C@H]2C(=O)Nc2cccc(Br)n2)c2ccc(-c3cnc4cccnn34)cc12 [Compound 302]", "system-under-test": "Human Factor D (Homo sapiens (Human))", "value": "< 1000 nM"}
{"compound": "CC(=O)c1nn(CC(=O)N2CSC(C)(C)[C@H]2C(=O)NCc2cccc(Cl)c2F)c2ccc(-c3cnc(C)nc3)cc12 [Compound 329]", "system-under-test": "Human Factor D (Homo sapiens (Human))", "value": "1000 to 10000 nM"}
{"compound": "CC(=O)c1cn(CC(=O)N2C[C@H](F)C[C@H]2C(=O)Nc2cccc(-c3ccccc3Cl)c2F)c2ccc(-c3cnc(C(N)=O)nc3)cc12 [Compound 209]", "system-under-test": "Human Factor D (Homo sapiens (Human))", "value": "< 1000 nM"}
{"compound": "CC(=O)c1nn(CC(=O)N2CSC[C@H]2C(=O)Nc2cccc(Br)n2)c2ccc(-c3cnc(C)nc3)cc12 [Compound 312]", "system-under-test": "Human Factor D (Homo sapiens (Human))", "value": "< 1000 nM"}
{"compound": "COCCOCCOCCOCCOCCOc1ncc(-c2ccc3c(c2)c(C(C)=O)nn3CC(=O)N2C[C@H](F)C[C@H]2C(=O)Nc2cccc(Br)n2)cn1 [Compound 316]", "system-under-test": "Human Factor D (Homo sapiens (Human))", "value": "< 1000 nM"}
{"compound": "CC(=O)c1nn(CC(=O)N2C[C@H](F)C[C@H]2C(=O)Nc2cccc(C#N)n2)c2ccc(-c3cnc4cc(C)nn4c3)cc12 [Compound 265]", "system-under-test": "Human Factor D (Homo sapiens (Human))", "value": "< 1000 nM"}
{"compound": "Cc1ncc(-c2ccc3c(c2)c(C(N)=O)cn3CC(=O)N2C[C@H](F)C[C@H]2C(=O)Nc2cccc(Br)n2)cn1 [Compound 307]", "system-under-test": "Human Factor D (Homo sapiens (Human))", "value": "< 1000 nM"}
{"compound": "CC(=O)c1nn(CC(=O)N2C[C@H](F)C[C@H]2C(=O)Nc2cccc(Br)n2)c2ccc(-c3cnc4n3CCCC4)cc12 [Compound 309]", "system-under-test": "Human Factor D (Homo sapiens (Human))", "value": "< 1000 nM"}
{"compound": "CC(=O)c1nn(CC(=O)N2C[C@H](F)C[C@H]2C(=O)Nc2cccc(Br)n2)c2ccc(-c3n[nH]c4ccsc34)cc12 [Compound 291]", "system-under-test": "Human Factor D (Homo sapiens (Human))", "value": "< 1000 nM"}
{"compound": "CC(=O)c1nn(CC(=O)N2[C@@H]3C[C@@H]3C[C@H]2C(=O)Nc2cccc(Br)n2)c2ccc(-c3cnc4ccnn4c3)cc12 [Compound 238]", "system-under-test": "Human Factor D (Homo sapiens (Human))", "value": "< 1000 nM"}
{"compound": "CC(=O)c1nn(CC(=O)N2C[C@H](F)C[C@H]2C(=O)Nc2cccc(F)n2)c2ccc(-c3cnc(C)nc3)cc12 [Compound 247]", "system-under-test": "Human Factor D (Homo sapiens (Human))", "value": "< 1000 nM"}
{"compound": "CC(=O)c1nn(CC(=O)N2C[C@H](F)C[C@H]2C(=O)Nc2cccc(Br)c2F)c2ccc(-c3cnc(C)nc3)cc12 [Compound 273]", "system-under-test": "Human Factor D (Homo sapiens (Human))", "value": "< 1000 nM"}
{"compound": "CC(=O)c1nn(CC(=O)N2C[C@H](F)C[C@H]2C(=O)Nc2cccc(OC(F)(F)F)c2F)c2ccc(-c3cnc4cc(C)nn4c3)cc12 [Compound 256]", "system-under-test": "Human Factor D (Homo sapiens (Human))", "value": "< 1000 nM"}
